We begin with a simple list: items and their reported Correlation.
# tested.system: ABCC5 (Homo sapiens, UniProt O15440)
# Construct: profiled in 60 diverse cancer cell lines (the NCI-60) using real-time RT-PCR; endogenous in cells; host or cells: NCI-60 human cancer cell lines
# Sequence (O15440 whole entry): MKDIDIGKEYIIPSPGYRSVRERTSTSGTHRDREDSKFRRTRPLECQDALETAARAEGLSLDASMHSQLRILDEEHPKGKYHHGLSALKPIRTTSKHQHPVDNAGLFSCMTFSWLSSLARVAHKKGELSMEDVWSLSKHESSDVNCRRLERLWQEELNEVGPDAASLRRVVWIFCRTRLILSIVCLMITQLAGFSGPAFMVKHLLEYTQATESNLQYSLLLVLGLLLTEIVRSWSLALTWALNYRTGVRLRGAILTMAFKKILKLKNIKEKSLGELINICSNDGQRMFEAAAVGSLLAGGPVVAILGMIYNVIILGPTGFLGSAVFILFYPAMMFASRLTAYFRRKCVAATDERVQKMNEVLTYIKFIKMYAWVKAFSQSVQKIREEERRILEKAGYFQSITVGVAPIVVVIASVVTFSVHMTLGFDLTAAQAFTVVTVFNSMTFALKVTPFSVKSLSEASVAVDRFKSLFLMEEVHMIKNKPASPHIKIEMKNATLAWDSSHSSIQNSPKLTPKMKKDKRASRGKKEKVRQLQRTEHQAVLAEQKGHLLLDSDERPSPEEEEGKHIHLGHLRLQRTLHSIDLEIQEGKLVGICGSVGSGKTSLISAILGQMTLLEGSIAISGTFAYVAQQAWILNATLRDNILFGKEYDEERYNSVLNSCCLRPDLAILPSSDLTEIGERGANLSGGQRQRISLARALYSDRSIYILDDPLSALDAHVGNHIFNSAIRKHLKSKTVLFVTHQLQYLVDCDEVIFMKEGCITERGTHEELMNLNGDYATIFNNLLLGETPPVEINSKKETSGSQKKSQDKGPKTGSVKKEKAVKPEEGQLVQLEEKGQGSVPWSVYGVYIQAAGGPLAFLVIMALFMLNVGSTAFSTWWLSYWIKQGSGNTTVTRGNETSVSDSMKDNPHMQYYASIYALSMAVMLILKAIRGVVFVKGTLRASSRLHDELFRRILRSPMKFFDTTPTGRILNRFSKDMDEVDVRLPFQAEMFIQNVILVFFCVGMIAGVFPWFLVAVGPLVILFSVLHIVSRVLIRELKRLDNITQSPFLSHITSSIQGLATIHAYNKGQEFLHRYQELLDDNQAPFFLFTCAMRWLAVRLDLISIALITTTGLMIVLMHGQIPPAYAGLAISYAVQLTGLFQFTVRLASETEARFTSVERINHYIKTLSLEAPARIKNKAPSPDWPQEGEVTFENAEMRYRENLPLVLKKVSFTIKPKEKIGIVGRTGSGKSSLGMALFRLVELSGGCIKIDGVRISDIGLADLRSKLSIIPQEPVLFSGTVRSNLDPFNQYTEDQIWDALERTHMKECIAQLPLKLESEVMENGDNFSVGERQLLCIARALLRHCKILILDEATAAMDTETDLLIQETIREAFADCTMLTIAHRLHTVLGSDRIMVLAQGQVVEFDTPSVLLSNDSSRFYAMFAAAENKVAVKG
# test.protocol: Correlation of ABCC5 expression with drug sensitivity across the NCI-60
# Assay type: cell-based
# assay.context: Pearson correlation of ABCC5 expression with sensitivity of the 60 cell lines; 1429 compounds; inverse, p < 0.0001
reported.endpoint: Correlation

>>> measured_value("Cc1c2cc[n+](Cc3ccc(I)cc3)cc2c(C)c2c1[nH]c1ccccc12")
"−0.4123"
>>> measured_value("CS(=O)(=O)[O-].Cc1c2cc[n+](C)cc2c(C)c2c1[nH]c1ccccc12")
"−0.4318"
>>> measured_value("COc1cc2c(cc1Oc1c(Oc3c(O)c(OC)cc4c3C(CC(C)C)N(C)CC4)c(OC)cc3c1C(CC(C)C)N(C)CC3)C(CC(C)C)N(C)CC2 (stereo not shown)")
"−0.3650"
>>> measured_value("COc1ccc2c(c1)c1c(C)c3c[n+](C)ccc3c(C)c1n2C")
"−0.4494"

----------
We begin with a simple list: items and their reported Correlation of antiproliferative activity with ABCB1 expression.
# tested.system: ABCB1 (Homo sapiens, UniProt P08183)
# Sequence (P08183 whole entry): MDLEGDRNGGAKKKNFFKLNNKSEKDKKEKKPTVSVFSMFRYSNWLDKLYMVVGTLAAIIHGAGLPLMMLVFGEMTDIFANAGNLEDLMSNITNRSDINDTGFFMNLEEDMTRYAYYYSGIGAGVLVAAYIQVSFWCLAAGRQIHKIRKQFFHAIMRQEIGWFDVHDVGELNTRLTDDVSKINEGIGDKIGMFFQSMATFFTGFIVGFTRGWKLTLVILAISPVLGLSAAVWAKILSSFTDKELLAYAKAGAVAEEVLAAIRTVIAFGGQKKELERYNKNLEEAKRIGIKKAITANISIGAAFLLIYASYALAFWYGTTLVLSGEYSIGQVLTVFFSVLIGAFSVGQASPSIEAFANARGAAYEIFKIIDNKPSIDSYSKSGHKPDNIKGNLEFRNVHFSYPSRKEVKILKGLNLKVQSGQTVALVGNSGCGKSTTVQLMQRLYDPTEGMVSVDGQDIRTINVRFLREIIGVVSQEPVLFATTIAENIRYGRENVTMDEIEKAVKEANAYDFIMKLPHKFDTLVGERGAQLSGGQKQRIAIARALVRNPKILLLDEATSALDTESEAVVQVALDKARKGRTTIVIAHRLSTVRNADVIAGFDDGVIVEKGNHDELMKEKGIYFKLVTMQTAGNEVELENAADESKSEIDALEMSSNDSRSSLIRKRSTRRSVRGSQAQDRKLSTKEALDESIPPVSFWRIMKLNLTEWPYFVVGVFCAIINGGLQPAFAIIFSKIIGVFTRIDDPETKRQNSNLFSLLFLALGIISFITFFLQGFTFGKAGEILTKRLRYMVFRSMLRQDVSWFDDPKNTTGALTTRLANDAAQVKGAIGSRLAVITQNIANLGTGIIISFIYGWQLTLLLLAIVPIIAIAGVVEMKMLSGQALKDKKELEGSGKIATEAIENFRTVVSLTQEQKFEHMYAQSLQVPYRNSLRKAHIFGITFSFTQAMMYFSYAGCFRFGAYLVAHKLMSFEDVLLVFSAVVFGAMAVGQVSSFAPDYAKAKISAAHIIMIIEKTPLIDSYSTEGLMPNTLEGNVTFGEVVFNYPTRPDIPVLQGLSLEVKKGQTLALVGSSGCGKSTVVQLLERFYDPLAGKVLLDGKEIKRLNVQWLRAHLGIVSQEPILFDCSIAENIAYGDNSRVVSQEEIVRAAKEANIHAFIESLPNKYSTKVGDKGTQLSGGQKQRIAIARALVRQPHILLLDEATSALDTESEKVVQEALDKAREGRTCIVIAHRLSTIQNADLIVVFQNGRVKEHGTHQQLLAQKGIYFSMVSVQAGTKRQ
# test.protocol: Correlation of ABCB1 expression with drug sensitivity across the NCI-60
# Description: Expression levels are measured by real-time quantitative RT-PCR using the LightCycler RNA Amplification SYBR Green kit and a LightCycler machine (Roche Biochemicals, Indianapolis, Ind.). […] During PCR amplification, fluorescence emission is measured and recorded in real time by the LightCycler. Crossing point values are calculated, using the LightCycler software package, by the Fit Points analysis method, with baseline fluorescence set at 1. […]
reported.endpoint: Correlation of antiproliferative activity with ABCB1 expression

>>> measured_value("Cc1ccc2nc3c(C(=O)NCCN(C)C)cccc3cc2c1.Cl")
0.5317
>>> measured_value("COC(=O)CN(CC(O)C(NC(C)=O)C(O)C=O)C(=O)OCc1ccccc1 (stereo not drawn)")
0.3708
>>> measured_value("CCC1=NC(N/N=C/c2ccccc2O)=N/C1=C\\c1ccccc1O")
0.4314
>>> measured_value("CC(C)=CCC[C@@H](C)C1=C(O)C(Nc2ccccc2)=C(C)C(=O)C1=O")
0.4663
>>> measured_value("CN(C)c1nc(N(C)C)nc(N(C)C)n1")
0.4856
>>> measured_value("O=C1CSc2sc(=S)sc2S1")
0.3894
>>> measured_value("CN(C)CCNC(=O)c1cc(Cl)cc2cc3ccccc3nc12.Cl")
0.3715
>>> measured_value("CSc1nc2nn(Cc3ccccc3)cc2c(=O)[nH]1")
0.4001
>>> measured_value("CCOC(=O)NC1CC2CCC1(OC)C=C2C (stereo not drawn)")
0.424
>>> measured_value("CC(C)=CCC[C@@H](C)c1c2ncc[nH]c-2c(C)c(=O)c1O")
0.4249
>>> measured_value("CC(C)=CCC[C@@H](C)C1=C(O)C(=O)C(C)=C(NC(C)c2ccccc2)C1=O (stereo partly drawn)")
0.4295
>>> measured_value("Cc1cc(C)c(C2=NO[C@@H]3[C@H]2C(=O)C=C2N(Cc4ccccc4)CCO[C@@]23O)c(C)c1")
0.3511
>>> measured_value("[N-]=[N+]=CC(=O)OC1Cc2ccccc2C1")
0.3504
>>> measured_value("O=[Se](=O)c1ccccc1.O=[Se](=O)c1ccccc1.[Cu]")
0.4177
>>> measured_value("CSc1sc(=S)sc1SC")
0.4454
>>> measured_value("CC(C)=CCCC(C)c1c(O)c(O)c(C)c2nc3ccccc3nc12 (stereo not drawn)")
0.4435
>>> measured_value("Cc1c2ccnc(-c3ccccc3)c2cc2c1[nH]c1ccccc12")
0.5323
>>> measured_value("c1cc(-c2cn3ccsc3n2)ccn1")
0.3643
>>> measured_value("CC(C)=CCC[C@@H](C)C1=C(O)C(Nc2ccccc2Cl)=C(C)C(=O)C1=O")
0.3558
>>> measured_value("CNC1=C(C)C(=O)C(O)=C([C@H](C)CCC=C(C)C)C1=O")
0.4349
>>> measured_value("CNC(=O)C(C)C1CCC2(C)C=CC(=O)C(C)=C2C1O (stereo not drawn)")
0.459
>>> measured_value("Oc1c(CN2CCN(c3ccccc3)CC2)cc(Br)c2cccnc12")
0.3579
>>> measured_value("O=C(/C=C/c1ccccc1)CSc1nc2ccc(I)cc2c(=O)n1Cc1ccccc1")
0.3544
>>> measured_value("O=C1Sc2sc(=S)sc2SC1c1ccccc1 (stereo not drawn)")
0.3534
>>> measured_value("O=C(N[C@@H](c1ccccc1)[C@@H](O)C(=O)OCc1ccc2c(c1)OCO2)c1ccccc1")
0.3935
>>> measured_value("COc1ccc(NC(=S)N/N=C2\\C(=O)Nc3c(Cl)cc(Cl)cc32)cc1")
0.511
>>> measured_value("O=[N+]([O-])c1cccc(/C=N/Nc2ccc3ccccc3n2)c1O")
0.4839
>>> measured_value("Cl.Oc1c(CN2CCCC2)ccc2cccnc12")
0.6811
>>> measured_value("O=C(O)Cc1cccc2c(=O)cc(-c3ccccc3)oc12")
0.4109
>>> measured_value("Cc1cc(C(=O)NCCN(C)C)c2nc3ccccc3cc2c1.Cl")
0.423
>>> measured_value("Cc1ccc(S(=O)(=O)O)cc1.N/C(=N\\N=C/c1cc(Br)cc(Br)c1O)NO")
0.3643
>>> measured_value("CC(/C=N/NC(=S)N1CCCCC1)=N/NC(=S)N1CCCCC1")
0.3892
>>> measured_value("Nc1nc(N)c2nc(CNc3ccc(C(=O)NC(CCC(=O)O)C(=O)O)cc3F)cnc2n1.O=C(O)C(F)(F)F (stereo not drawn)")
0.3523
>>> measured_value("CC(C)=CCC[C@@H](C)C1=C(O)C(=O)C(C)=C(N)C1=O")
0.5358
>>> measured_value("CC(C)OC(=S)Nc1ccc(Cl)c(/C=N/OC(C)(C)C)c1")
0.3924
>>> measured_value("C=C(C)[C@@H]1CCc2c(O)c(O)c(=O)cc(C)c2C1")
0.3698
>>> measured_value("CC(C)=CCC[C@@H](C)C1=C(Nc2ccccc2F)C(=O)C(C)=C(O)C1=O")
0.3522
>>> measured_value("O=C(/C=C/c1ccc(Cl)cc1)c1ccccc(=O)c1O")
0.4021
>>> measured_value("O=C1c2c(nc3ccccc3c2-c2ccccc2)CN1Nc1ccccn1")
0.3579

----------
We begin with a simple list: items and their reported Pearson's Correlation Coeff.
# tested.system: ABCB1 (Homo sapiens)
# test.protocol: Correlation of ABCB1 expression with drug sensitivity across the NCI-60
reported.endpoint: Pearson's Correlation Coeff

>>> measured_value("CC(C)=CCCC(C)c1c(O)c(O)c(C)c2nc3ccccc3nc12 (stereo not shown)")
0.4167
>>> measured_value("N#Cc1c(N2CCN(c3ccc([N+](=O)[O-])cc3)CC2)[n+](=O)c2ccc(Cl)cc2n1[O-]")
0.2012
>>> measured_value("CC(C)=CCC[C@@H](C)C1=C(O)C(=O)C(C)=C(N)C1=O")
0.5604
>>> measured_value("Cc1ccc(C2COc3cc(O)c(O)cc3C2)cc1 (stereo not shown)")
0.2177
>>> measured_value("O=C1C=CC(=O)c2c(O)ccc(O)c21")
0.2476
>>> measured_value("CCOc1cc2c(cc1O)C(=O)C[C@@H]1[C@@H]2CC[C@]2(C)[C@@H](O)CC[C@@H]12")
0.2672
>>> measured_value("Cc1cc(C)n(-c2nc3ccccc3c(=O)[nH]2)n1")
0.4305
>>> measured_value("Cc1c2cnccc2c(C)c2c1c1ccccc1n2CCOC(=O)c1ccccc1")
0.2891
>>> measured_value("C[C@]12CC[C@@H]3c4cc(OCC(F)(F)F)c(O)cc4/C(=N/O)C[C@H]3[C@@H]1CC[C@@H]2O")
0.2079
>>> measured_value("c1cc2n(n1)CCN2")
0.4328
>>> measured_value("COc1ccc2oc(S(=O)(=O)N3CC(CCl)c4ccc([N+](=O)[O-])cc43)cc2c1 (stereo not shown)")
0.2171
>>> measured_value("CCc1nc(N)nc(N)c1-c1ccc2nn(-c3ccccc3)[n+]([O-])c2c1")
0.3151
>>> measured_value("Cc1c(-c2ccc(-c3ccccc3F)cc2)nc2ccc(F)cc2c1C(=O)O")
0.2331
>>> measured_value("CN(Cc1cnc2nc(N)nc(N)c2n1)c1ccc(C(=O)N[C@@H](CCC(=O)O)C(=O)O)c2ccccc12")
0.2662
>>> measured_value("CN(C)CCNc1ccc2nnn3c4ccc(Cl)cc4c(=O)c1c23")
0.3377
>>> measured_value("CC(=O)OC(C)(C)/C=C/C(=O)[C@](C)(O)[C@H]1[C@H](O)C[C@@]2(C)[C@@H]3CC=C4[C@@H](C=C(O)C(=O)C4(C)C)[C@]3(C)C(=O)C[C@]12C")
0.1871
